Protocol Description: Metabolic stability in mouse liver microsomes assessed as parent compound remaining in presence of NADPH by LC-MS/MS method
Assay type: ADME
Please use class 1 whenever Stability is not below 70%, and class 0 whenever it is.

> print(dat)
                                   molecule  assigned.category
1  COc1cc(CN(Cc2ccc(/C=C/C(=O)O)cc2)C(C)c2ccc3c(c2)CCO3)ccc1OCCN1C(=O)CCC1=O (stereo not drawn)            class 1
2  CC(c1ccc2c(c1)CCO2)N(Cc1ccc(OCCN2C(=O)CCC2=O)c(Cl)c1)C[C@H]1CC[C@H](C(=O)O)CC1 (stereo partly drawn)            class 1
3  CC(c1ccc2c(c1)CCO2)N(C)Cc1ccc(OCCN2C(=O)CCC2=O)c(Cl)c1 (stereo not drawn)            class 0
4  COc1cc(CN(C[C@H]2CC[C@H](C(=O)O)CC2)C2CCc3cc(Cl)ccc32)ccc1OCCN1C(=O)CCC1=O (stereo partly drawn)            class 1
5  COc1cc(CN(C[C@H]2CC[C@H](C(=O)O)CC2)C(C)c2ccc3c(c2)CCO3)ccc1OCCN1C(=O)CSC1=O (stereo partly drawn)            class 1
6  COc1cc(CN(Cc2ccc(C(=O)O)cc2)C(C)c2ccc3c(c2)CCO3)ccc1OCCN1C(=O)CCC1=O (stereo not drawn)            class 0
7  COc1cc(CN(C[C@H]2CC[C@H](C(=O)O)CC2)[C@@H](C)c2ccc(Cl)cc2)ccc1OCCn1c(=O)ccn(C)c1=O            class 1
8  COc1cc(CNCc2ccc3c(c2)CCO3)ccc1OCCN1C(=O)CCC1=O            class 0

* * *

List of Papp at 2 h values.
Protocol Description: Apparent permeability across human Caco2 cells after 2 hrs by LC-MS method
Format: ADME, cell-based
Condition Context: Caco-2
Readout Kind: Papp at 2 h (×10⁻⁶ cm/s)

> print(dat)
                                    molecule  recorded.result
 1  COc1cc(CN(Cc2ccc(-c3nnn[nH]3)cc2)C(C)c2ccc3c(c2)CCO3)ccc1OCCN1C(=O)CCC1=O (stereo not given)              0.2
 2  CCC(c1ccc2c(c1)CCO2)N(Cc1ccc(C(=O)O)cc1)Cc1ccc(OCCN2C(=O)CCC2=O)c(OC)c1 (stereo not given)             1.46
 3  COc1cc(CN(C[C@H]2CC[C@H](C(=O)O)CC2)[C@H]2CCc3c2ccc(Cl)c3Cl)ccc1OCCN1C(=O)CCC1=O              5.7
 4  COc1cc(CN(C[C@H]2CC[C@H](C(=O)O)CC2)[C@@H]2CCc3cc(Cl)ccc32)ccc1OCCN1C(=O)CCC1=O             6.62
 5  COc1cc(CN(CCCC(=O)O)C(c2ccc3c(c2)CCO3)C2CCCC2)ccc1OCCN1C(=O)CCC1=O (stereo not given)             3.21
 6  COc1cc(CN(C[C@H]2CC[C@H](C(=O)O)CC2)[C@H]2CCc3c2ccc(Cl)c3F)ccc1OCCN1C(=O)CCC1=O             2.97
 7  CCc1cc(CN(C[C@H]2CC[C@H](C(=O)O)CC2)[C@H]2CCc3cc(Cl)ccc32)ccc1OCCN1C(=O)CCC1=O             8.02
 8  CC(c1ccc2c(c1)CCO2)N(Cc1ccc(OCCN2C(=O)CCC2=O)c(Cl)c1)C[C@H]1CC[C@H](C(=O)O)CC1 (stereo not given in full)             3.95
 9  COc1cc(CN(C[C@H]2CC[C@H](C(=O)O)CC2)[C@@H](C)c2ccc(Cl)cc2)ccc1OCCN1C(=O)CCC1=O             5.28
10  COc1cc(CN(C[C@H]2CC[C@H](C(=O)O)CC2)C(C)c2ccc3c(c2)CCO3)ccc1OCCN1C(=O)COC1=O (stereo not given in full)             1.16
11  Cc1cc(CN(C[C@H]2CC[C@H](C(=O)O)CC2)[C@@H](C)c2ccc(Cl)cc2)ccc1OCCN1C(=O)CN(C)C1=O             15.7
12  COc1cc(CN(C[C@H]2CC[C@H](C(=O)O)CC2)C(C)c2ccc3c(c2)CCO3)ccc1OCCN1C(=O)CSC1=O (stereo not given in full)             2.93
13  COc1cc(CN(Cc2ccc(C(=O)O)cc2)[C@H](C)c2ccc(Cl)cc2)ccc1OCCN1C(=O)CCC1=O              3.7
14  COc1cc(CN(C[C@H]2CC[C@H](C(=O)O)CC2)C(C)c2ccc3c(c2)CCO3)ccc1OCCN1C(=O)CCC1=O (stereo not given in full)             0.98
15  Cc1cc(CN(C[C@H]2CC[C@H](C(=O)O)CC2)[C@H]2CCc3cc(Cl)ccc32)ccc1OCCN1C(=O)CCC1=O             8.12

* * *

List of Stability values.
Protocol Description: Metabolic stability in human liver microsomes assessed as parent compound remaining in presence of NADPH by LC-MS/MS method
Format: ADME
Readout Kind: Stability (%)

> print(dat)
                                   compound  recorded.result
1  COc1cc(CN(Cc2cccnc2)C(C)c2ccc3c(c2)CCO3)ccc1OCCN1C(=O)CCC1=O (stereo not drawn)               19
2  COc1cc(CN(C[C@H]2CC[C@H](C(=O)O)CC2)[C@H]2CCc3c2ccc(Cl)c3F)ccc1OCCN1C(=O)CCC1=O               73
3  COc1cc(CN(Cc2ccc(C(=O)O)cc2)[C@H](C)c2ccc(Cl)cc2)ccc1OCCN1C(=O)CCC1=O               98
4  COc1cc(CNCc2ccc3c(c2)CCO3)ccc1OCCN1C(=O)CCC1=O               61
5  COc1cc(CN(CC(C)O)C(C)c2ccc3c(c2)CCO3)ccc1OCCN1C(=O)CCC1=O (stereo not drawn)                2
6  Cc1cc(CN(C[C@H]2CC[C@H](C(=O)O)CC2)[C@@H](C)c2ccc(Cl)cc2)ccc1OCCN1C(=O)CN(C)C1=O               63
7  COc1cc(CN(C)C(C)c2ccc3c(c2)CCO3)ccc1OCCN1C(=O)CCC1=O (stereo not drawn)               53
8  COc1cc(CN(CCO)C(C)c2ccc3c(c2)CCO3)ccc1OCCN1C(=O)CCC1=O (stereo not drawn)                3

* * *

Protocol Description: Metabolic stability in mouse liver microsomes assessed as parent compound remaining in presence of NADPH by LC-MS/MS method
Assay type: ADME
Readout Kind: Stability (%)

> print(dat)
                                   compound  readout.kind  recorded.result
1  COc1cc(CN(C[C@H]2CC[C@H](C(=O)O)CC2)[C@@H]2CCc3cc(Cl)ccc32)ccc1OCCN1C(=O)CCC1=O     Stability               55
2  COc1cc(CN(C[C@H]2CC[C@H](C(=O)O)CC2)C(C)c2ccc3c(c2)CCO3)ccc1OCCN1C(=O)COC1=O (stereo partly drawn)     Stability               93
3  COc1cc(CN(C[C@H]2CC[C@H](C(=O)O)CC2)[C@H]2CCc3c2ccc(Cl)c3Cl)ccc1OCCN1C(=O)CCC1=O     Stability               81
4  CCC(c1ccc2c(c1)CCO2)N(Cc1ccc(OCCN2C(=O)CCC2=O)c(OC)c1)CC(C)C (stereo not drawn)     Stability               19
5  COc1cc(CN(C[C@H]2CC[C@H](C(=O)O)CC2)[C@H]2CCc3cc(Cl)ccc32)ccc1SCCN1C(=O)CCC1=O     Stability                3
6  COc1cc(CN(CCN)C(C)c2ccc3c(c2)CCO3)ccc1OCCN1C(=O)CCC1=O (stereo not drawn)     Stability               13
7  COc1cc(CNC(C)c2ccc3c(c2)CCO3)ccc1OCCN1C(=O)CCC1=O (stereo not drawn)     Stability               62
8  COc1cc(CN(CC(C)=O)C(C)c2ccc3c(c2)CCO3)ccc1OCCN1C(=O)CCC1=O (stereo not drawn)     Stability                0

* * *

List of inhibition values.
Experimental Target: Mu-type opioid receptor (Homo sapiens) (UniProt P35372)
Sequence (P35372 whole entry): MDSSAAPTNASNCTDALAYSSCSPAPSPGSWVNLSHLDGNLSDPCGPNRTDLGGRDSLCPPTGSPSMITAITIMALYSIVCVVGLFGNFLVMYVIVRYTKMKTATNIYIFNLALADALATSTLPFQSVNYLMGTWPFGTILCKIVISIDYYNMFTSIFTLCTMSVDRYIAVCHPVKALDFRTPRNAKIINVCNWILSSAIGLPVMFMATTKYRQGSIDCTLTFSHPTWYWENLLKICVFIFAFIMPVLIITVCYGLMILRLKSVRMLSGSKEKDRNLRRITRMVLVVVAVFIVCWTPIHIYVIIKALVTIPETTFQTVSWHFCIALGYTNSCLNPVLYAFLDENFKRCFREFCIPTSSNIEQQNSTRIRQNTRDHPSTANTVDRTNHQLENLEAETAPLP
Protocol Description: Displacement of [3H]DAMGO from recombinant human mu opioid receptor expressed in HEK293 cells at 10 uM after 60 mins by scintillation counting method relative to control
Format: cell-based
Readout Kind: inhibition (%)

> print(dat)
                                   compound  unit.of.measure  value.qualifier  recorded.result
1  Cc1cc(CN(C[C@H]2CC[C@H](C(=O)O)CC2)C(C)c2ccc3c(c2)CCO3)ccc1OCCN1C(=O)CCC1=O (some centres not stated)                %                =               78
2  Cc1cc(CN(C[C@H]2CC[C@H](C(=O)O)CC2)[C@H]2CCc3cc(Cl)ccc32)ccc1OCCN1C(=O)CCC1=O                %                =               87
3  COc1cc(CN(C)C(C)c2ccc3c(c2)CCO3)ccc1OCCN1C(=O)CCC1=O (configuration not stated)                %                >               65
4  COc1cc(CN(C[C@H]2CC[C@H](C(=O)O)CC2)[C@H]2CCc3cc(Cl)ccc32)ccc1OCCN1C(=O)CCC1=O                %                =               43
5  COc1cc(CN(C[C@H]2CC[C@H](C(=O)O)CC2)[C@@H](C)c2ccc(Cl)cc2)ccc1OCCN1C(=O)CCC1=O                %                =               74
6  COc1cc(CN(C[C@H]2CC[C@H](C(=O)O)CC2)C(C)c2ccc3c(c2)CCO3)ccc1OCCN1C(=O)CSC1=O (some centres not stated)                %                =               94
